- Target desc: Protein farnesyltransferase (Homo sapiens, UniProt P49354+P49356)
- Measurement protocol: Inhibitory activity against human purified recombinant farnesyltransferase (hFT)
- Assay type: protein-complex assay
Answer each item with its documented pIC50.
// returns pIC50 (minus log10 of molar concentration), number only

Indicate the recorded pIC50 value for this compound: "N#CN=C(Nc1ccc(Cl)cc1)N1CCN(Cc2cnc[nH]2)c2ccc(-c3ccccc3)cc2C1"
5.85

Indicate the recorded pIC50 value for this compound: "Cc1cccc2c1N(Cc1c[nH]cn1)CCN(C(=O)c1cccc3ccccc13)C2"
6.46

Indicate the recorded pIC50 value for this compound: "O=S(=O)(c1cccc2ccccc12)N1CCN(Cc2c[nH]cn2)c2ccc(-c3ccccc3)cc2C1"
6.37

Indicate the recorded pIC50 value for this compound: "COc1ccc(C(=O)C(=O)N2CCN(Cc3cnc[nH]3)c3ccc(-c4ccccc4)cc3C2)cc1"
7.04

Indicate the recorded pIC50 value for this compound: "O=C(N1CCN(Cc2cnc[nH]2)c2ccccc2C1)N(c1ccccc1)c1ccccc1"
5.92

---

- Target desc: Protein farnesyltransferase (Homo sapiens, UniProt P49354+P49356)
- Measurement protocol: Phenotypic reversion of H-Ras transformed NIH3T3 cells at 1.25 uM
- Type: functional, cell-based
- Experimental conditions: Mus musculus
Answer each item with its documented Reversion activity.
All answers are understood in %, so give the number only.

Indicate the recorded Reversion activity value for this molecule: "c1ccc(-c2ccc3c(c2)CN(c2nnnn2-c2ccccc2)CCN3Cc2c[nH]cn2)cc1"
0

Indicate the recorded Reversion activity value for this molecule: "O=C(c1cccc2ccccc12)N1CCN(Cc2c[nH]cn2)c2ccc(-c3ccncc3)cc2C1"
60

Indicate the recorded Reversion activity value for this molecule: "N#C/N=C(/Nc1ccc(Cl)cc1)N1CCN(Cc2c[nH]cn2)c2ccc(-c3ccccc3)cc2C1"
0

Indicate the recorded Reversion activity value for this molecule: "COc1ccc(C(=O)C(=O)N2CCN(Cc3c[nH]cn3)c3ccc(-c4ccccc4)cc3C2)cc1"
0

Indicate the recorded Reversion activity value for this molecule: "O=C(c1cccc2ccccc12)N1CCN(Cc2c[nH]cn2)c2ccc(-c3ccccc3)cc2C1"
0

Indicate the recorded Reversion activity value for this molecule: "Cc1cccc2c1N(Cc1c[nH]cn1)CCN(C(=O)c1cccc3ccccc13)C2"
0

Indicate the recorded Reversion activity value for this molecule: "COc1ccc2ccccc2c1C(=O)N1CCN(Cc2c[nH]cn2)c2ccc(-c3ccccc3)cc2C1"
85

Indicate the recorded Reversion activity value for this molecule: "O=C(N1CCN(Cc2c[nH]cn2)c2ccc(-c3ccccc3)cc2C1)N1CCCc2ccccc21"
0

Indicate the recorded Reversion activity value for this molecule: "O=C(Nc1ccc2c(c1)N(Cc1c[nH]cn1)CCN(C(=O)c1cccc3ccccc13)C2)c1ccccc1"
0

Indicate the recorded Reversion activity value for this molecule: "O=C(Nc1ccc2c(c1)N(Cc1c[nH]cn1)CCN(C(=O)c1cccc3ccccc13)C2)OC1CCCCC1"
40

Indicate the recorded Reversion activity value for this molecule: "CC(=O)Nc1ccc2c(c1)N(Cc1c[nH]cn1)CCN(C(=O)c1cccc3ccccc13)C2"
0

Indicate the recorded Reversion activity value for this molecule: "O=C(c1cccc2ccccc12)N1CCN(Cc2c[nH]cn2)c2ccc(-c3cccnc3)cc2C1"
0

Indicate the recorded Reversion activity value for this molecule: "O=C(c1ccccc1SCCO)N1CCN(Cc2c[nH]cn2)c2ccc(-c3ccccc3)cc2C1"
0

Indicate the recorded Reversion activity value for this molecule: "O=S(=O)(c1cccc2ccccc12)N1CCN(Cc2c[nH]cn2)c2ccc(-c3ccccc3)cc2C1"
0

Indicate the recorded Reversion activity value for this molecule: "O=C(Nc1ccc2c(c1)N(Cc1c[nH]cn1)CCN(C(=O)c1cccc3ccccc13)C2)NC1CCCCC1"
0

Indicate the recorded Reversion activity value for this molecule: "O=C(c1ccccc1OC(F)(F)F)N1CCN(Cc2c[nH]cn2)c2ccc(-c3ccncc3)cc2C1"
85

Indicate the recorded Reversion activity value for this molecule: "O=C(c1cccc2ccccc12)N1CCN(Cc2c[nH]cn2)c2ccc(-c3ccccn3)cc2C1"
0

Indicate the recorded Reversion activity value for this molecule: "O=C(c1cccc2ccccc12)N1CCN(Cc2c[nH]cn2)c2ccc(Br)cc2C1"
0

Indicate the recorded Reversion activity value for this molecule: "O=C(c1cccc2ccccc12)N1CCN(Cc2c[nH]cn2)c2ccc(C3CCCCC3)cc2C1"
0

Indicate the recorded Reversion activity value for this molecule: "O=C(c1cccc2ccccc12)N1CCN(Cc2c[nH]cn2)c2cc(NS(=O)(=O)c3ccccc3)ccc2C1"
0

Indicate the recorded Reversion activity value for this molecule: "c1ccc(-c2ccc3c(c2)CN(Cc2cccc4ccccc24)CCN3Cc2c[nH]cn2)cc1"
0

Indicate the recorded Reversion activity value for this molecule: "O=C(Nc1ccc2c(c1)N(Cc1c[nH]cn1)CCN(C(=O)c1cccc3ccccc13)C2)C1CCCCC1"
0

Source listed as ChEMBL document CHEMBL1132694.
